Exercise: state measured concentration at 1 h for each of the compounds provided.
# PROCEDURE_SUMMARY: Unbound plasma concentration in human KI mice of the CFA model
# Type: in vivo
# TEST_CONDITIONS: female, human PTGES knock-in (humanized KI, transgenic) mice, mouse, in vivo, 10 mg/kg; read-out: Plasma concentration Cplasma-unbound
Express the result in nM but write the number alone.

Measured concentration at 1 h, Cc1c(CCC(=O)O)cccc1NC(=O)C(c1ccc(-c2cncc(C(F)(F)F)c2)cc1)C1CCC1 (single isomer, unassigned; (-)) [Example 55] : 322

Field concentration at 1 h (entry Cc1c(CCC(=O)O)cccc1NC(=O)C(c1ccc(-c2cncc(C(F)(F)F)c2)c(F)c1)C1CCCC1 (single isomer, unassigned; (-)) [Example 48] ) reads 88

====

# PROCEDURE_SUMMARY: Unbound plasma concentration in human KI mice of the CFA model
# Assay type: in vivo
# TEST_CONDITIONS: female, human PTGES knock-in (humanized KI, transgenic) mice, mouse, in vivo, 3 mg/kg; read-out: Plasma concentration Cplasma-unbound
READOUT: concentration at 1 h
Give the value; after it, write the unit.

Lab note: Cc1c(CCC(=O)O)cccc1NC(=O)C(c1ccc(-c2cncc(C(F)(F)F)c2)cc1)C1CCC1 (single isomer, unassigned; (-)) gave concentration at 1 h of 103 nM

In plain terms, Cc1c(CCC(=O)O)cccc1NC(=O)C(c1ccc(-c2cncc(C(F)(F)F)c2)c(F)c1)C1CCCC1 (single isomer, unassigned; (-)) has a documented concentration at 1 h of 32 nM

====

# STUDY_SYSTEM: human PTGES (Homo sapiens (Human))
# PROCEDURE_SUMMARY: Human PTGES biochemical enzyme inhibition assay (conversion of PGH2 to PGE2, TR-FRET)
# TEST_CONDITIONS: human PTGES, as listed in Table 2; read-out: hu IC50 biochem.
READOUT: pIC50
Note: pIC50 values are expressed as the negative base-10 logarithm of concentration in M.

Value of pIC50 reported for the compound Cc1c(CCC(=O)O)cccc1NC(=O)[C@@H](c1ccc(-c2cncc(Cl)c2)cc1)C1CCCC1 [Example 17] is 7.46

Sure, the documented pIC50 for Cc1c(CCC(=O)O)cccc1NC(=O)C(c1ccc(-c2cncc(C(F)(F)F)c2)c(F)c1)C1CCCC1 (single isomer, unassigned; (-)) [Example 48] is 8.52

Short answer for Cc1c(CCC(=O)O)cccc1NC(=O)C(c1ccc(-c2cncc(C(F)(F)F)c2)cc1)C1CCC1 (single isomer, unassigned; (-)) [Example 55] : pIC50 was 7.57

====

# STUDY_SYSTEM: UniProtKB O14684
# PROCEDURE_SUMMARY: Human PTGES biochemical enzyme inhibition assay (conversion of PGH2 to PGE2, TR-FRET)
# TEST_CONDITIONS: Enzymatic conversion of PGH2 to PGE2; read-out: Human PTGES IC50
READOUT: IC50 (nM)
Respond with the bare value in nM.

The measured IC50 associated with Cc1cncc(-c2ccc(C(C(=O)Nc3cccc(C(CC(=O)O)C4CC4)c3C)C3CCCC3)cc2)c1 (mixture of isomers) reads 140

Record summary for Cc1cc(-c2ccc(C(C(=O)Nc3cccc(CC(C)C(=O)O)c3C)C3CCCC3)cc2)cnc1C (stereo not drawn) : reported IC50 = 118

Quick note, IC50 for Cc1ncc(-c2ccc(C(C(=O)Nc3cccc(CCC(=O)O)c3C)C3CCC3)cc2F)cc1C(F)(F)F (single isomer, unassigned; (-)) landed at 10.1

====

# STUDY_SYSTEM: human PTGES (Homo sapiens (Human))
# PROCEDURE_SUMMARY: Human PTGES biochemical enzyme inhibition assay (conversion of PGH2 to PGE2, TR-FRET)
# TEST_CONDITIONS: Enzymatic conversion of PGH2 to PGE2; read-out: Human PTGES IC50
READOUT: pIC50
Reminder that pIC50 means the negative base-10 logarithm of the concentration expressed in mol/L.

For Cc1c(CCC(=O)O)cccc1NC(=O)C(c1ccc(-c2cncc(C(F)(F)F)c2)cc1)C1CCC1 (single isomer, unassigned; (+)) [Example 56] the compound record lists pIC50 as 5.12

# compound Cc1ncc(-c2ccc(C(C(=O)Nc3cccc(C(CC(=O)O)C4CC4)c3C)C3CCCC3)cc2)cc1Cl (mixture of isomers) ; its pIC50 = 7.50

pIC50 measured on CCC(CC(=O)O)c1cccc(NC(=O)C(c2ccc(-c3cncc(C)c3)cc2)C2CCCC2)c1C (racemic) = 7.02

====

# STUDY_SYSTEM: UniProtKB O14684
# PROCEDURE_SUMMARY: Human PTGES biochemical enzyme inhibition assay (conversion of PGH2 to PGE2, TR-FRET)
# TEST_CONDITIONS: Enzymatic conversion of PGH2 to PGE2; read-out: Human PTGES IC50
# From the text: Human PTGES Biochemical Enzyme Inhibition Assay: PTGES (Microsomal prostaglandin E synthase 1) is an enzyme that converts prostaglandin H2 (PGH2) to prostaglandin E2 (PGE2) in the presence of reduced glutathione (GSH). Recombinant proteins (human isoforms) of PTGES containing a FLAG tag, expressed in baculovirus infected insect cells (Hi-5) and purified by affinity chromatography was used as enzyme in the assay. Substrate was prostaglandin H2 (Cayman Chemicals). […]
Threshold-based label: IC50 under 50 nM gives Satisfied, IC50 not under 50 nM gives Not satisfied.

Say whether its IC50 is strictly beneath 50 nM. Entry: Cc1c(NC(=O)C(c2ccc(-c3cncc(C(F)(F)F)c3)c(F)c2)C2CCC2)cccc1C(C)CC(=O)O (mixture of isomers) [Example 146]
Satisfied

Threshold test, IC50 < 50 nM: Cc1c(CCC(=O)O)cccc1NC(=O)C(c1ccc(-c2cncc(C(F)(F)F)c2)cc1)C1CCCCC1 (racemic)
Not satisfied

For this compound, is IC50 lower than 50 nM? Cc1c(NC(=O)C(c2ccc(-c3cncc(F)c3)cc2)C2CCCC2)cccc1C(C)CC(=O)O (mixture of isomers)
Satisfied

Is it true that IC50 reported for CCOc1cncc(-c2ccc(C(C(=O)Nc3cccc(CCC(=O)O)c3C)C3CCCC3)cc2)c1 (racemic) is less than 50 nM?
Not satisfied

Does the reported IC50 of the following compound sit strictly below 50 nM? Cc1c(CCC(=O)O)cccc1NC(=O)C(c1ccc(-c2ccc(C#N)nc2)cc1)C1CCCC1 (racemic)
Not satisfied

A record lists COc1cncc(-c2ccc(C(C(=O)Nc3cccc(CCC(=O)O)c3C)C3CCCC3)cc2)c1 (racemic) . Is its IC50 below 50 nM?
Not satisfied

Does the reported IC50 of the following compound sit strictly below 50 nM? CCc1cncc(-c2ccc(C(C(=O)Nc3cccc(C(C)CC(=O)O)c3C)C3CCCC3)cc2)c1 (mixture of isomers)
Satisfied

====

# STUDY_SYSTEM: human PTGES (Homo sapiens (Human), UniProt O14684)
# Sequence (O14684 whole entry): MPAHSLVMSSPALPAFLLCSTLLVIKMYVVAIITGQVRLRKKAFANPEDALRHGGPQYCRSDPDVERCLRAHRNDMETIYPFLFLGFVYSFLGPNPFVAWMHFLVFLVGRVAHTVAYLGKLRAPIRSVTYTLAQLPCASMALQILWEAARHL
# PROCEDURE_SUMMARY: Human PTGES biochemical enzyme inhibition assay (conversion of PGH2 to PGE2, TR-FRET)
# TEST_CONDITIONS: Enzymatic conversion of PGH2 to PGE2; read-out: Human PTGES IC50
Assign IC50 to each entry below.
The answer is to be given in nM; state only the numeric part.

Quick note, IC50 for Cc1c(NC(=O)C(c2ccc(-c3cncc(C(F)(F)F)c3)c(F)c2)C2CCC2)cccc1C(C)CC(=O)O (mixture of isomers) [Example 145] landed at 50.4

Entry under test: CCc1cncc(-c2ccc(C(C(=O)Nc3cccc(CCC(=O)O)c3C)C3CCCC3)cc2)c1 (racemic) . Its IC50 was 78.2

Form field IC50, entry Cc1ncc(-c2ccc(C(C(=O)Nc3cccc(C(C)CC(=O)O)c3C)C3CCCC3)cc2F)cc1Cl (single isomer, unassigned; stereoisomer 3) [Example 123] : 646

Entry Cc1c(NC(=O)C(c2ccc(-c3cncc(C(F)(F)F)c3)cc2)C2CCCC2)cccc1OCC(=O)O (racemic) [Example 33] , IC50 reported as 14.3

Measured IC50 of Cc1ncc(-c2ccc([C@H](C(=O)Nc3cccc(N(C)CC(=O)O)c3C)C3CCCC3)cc2)cc1Cl : 23.9

So, Cc1c(CCC(=O)O)cccc1NC(=O)C(c1ccc(-c2cncc(C(F)(F)F)c2)c(Cl)c1)C1CCCC1 (racemic) ? Its IC50 was 34.6

Cc1c(CCC(=O)O)cccc1NC(=O)C(c1ccc(-c2cncc(C(C)(C)O)c2)cc1)C1CCCC1 (racemic) has a reported IC50 of 3560

Please fill in: IC50 reported for Cc1ncc(-c2ccc(C(C(=O)Nc3cccc(C4CC4C(=O)O)c3C)C3CCCC3)cc2)cc1Cl (centres unmarked) = 42.8

For reference, reported IC50 for Cc1c(NC(=O)C(c2ccc(-c3cncc(C(F)(F)F)c3)cc2)C2CCCC2)cccc1C(CC(=O)O)C1CC1 (mixture of isomers) stands at 24.9

Recorded IC50 (molecule Cc1ncc(-c2ccc(C(C(=O)Nc3cccc(C(C)CC(=O)O)c3C)C3CCCC3)cc2)cc1F (mixture of isomers) ): 36.9

For record Cc1c(CCC(=O)O)cccc1NC(=O)[C@@H](c1ccc(-c2cncc(OC(C)C)c2)cc1)C1CCCC1 the listed IC50 is 36.1

Entry Cc1c(NC(=O)C(c2ccc(-c3cncc(C(F)(F)F)c3)c(F)c2)C2CCCC2)cccc1C(C)CC(=O)O (single isomer, unassigned; stereoisomer 2) [Example 117] ; IC50 = 15.6

Sure, the documented IC50 for Cc1ncc(-c2ccc(C(C(=O)Nc3cccc(CC(C)C(=O)O)c3C)C3CCCC3)cc2)cc1Cl (single isomer, unassigned; stereoisomer 2) [Example 84] is 41.1

// recorded IC50 for Cc1c(CCC(=O)O)cccc1NC(=O)C(c1ccc(-c2cncc(OC(C)C)c2)c(F)c1)C1CCC1 (single isomer, unassigned; (-)) : 39.3
